Test system: HCT-116
TEST NAME: Antiproliferative activity against human HCT116 cells assessed as reduction in cell viability incubated for 72 hrs by MTT assay
Assay type: functional, cell-based
APPLIED CONDITIONS: HCT-116, 72 h
MEASUREMENT TYPE: pIC50
Reminder that pIC50 means the negative base-10 logarithm of the concentration expressed in mol/L.

Some molecules with known pIC50 results, for comparison:
SMILES REPR | READING
COc1ncc(-c2ccc3c(c2)N(C(C)C)C(=O)CO3)cc1NS(=O)(=O)c1ccc(F)cc1 | 4.72
Cc1ccc(N2C(=O)COc3ccc(-c4cnc(Cl)c(NS(=O)(=O)c5ccc(F)cc5)c4)cc32)cc1 | 4.46
O=C1COc2ccc(-c3ccc(O)cc3)cc2N1c1ccc(Cl)cc1 | 4.40
O=C1COc2ccc(-c3cnc(Cl)c(NS(=O)(=O)c4ccc(F)cc4)c3)cc2N1c1ccccc1 | 4.40
COc1cccc(N2C(=O)COc3ccc(-c4cnc5ccccc5c4)cc32)c1 | 5.08
O=C1COc2ccc(-c3cnc(Cl)c(NS(=O)(=O)c4ccc(F)cc4)c3)cc2N1c1ccc(F)cc1 | 4.47
COc1ccc(N2C(=O)COc3ccc(-c4cnc(OC)c(NS(=O)(=O)c5ccc(F)cc5)c4)cc32)cc1 | 4.87
COc1ncc(-c2ccc3c(c2)N(C2CC2)C(=O)CO3)cc1NS(=O)(=O)c1ccc(F)cc1 | 4.61

Give the measured pIC50 of `O=C1COc2ccc(-c3cccc(NS(=O)(=O)c4ccc(F)cc4)c3)cc2N1C1CCCCC1` .
4.74

One more molecule: `O=C1COc2ccc(-c3cccc(NS(=O)(=O)c4ccc(F)cc4)c3)cc2N1c1ccc(Cl)cc1`
4.62

Please answer likewise for `COc1ccc(N2C(=O)COc3ccc(-c4ccc(O)cc4)cc32)cc1`
4.58

Then `COc1ncc(-c2ccc3c(c2)N(c2ccccc2)C(=O)CO3)cc1NS(=O)(=O)c1ccc(F)cc1` ?
4.73
